study system: T1, 6His-AviTag-linked cynomolgus monkey IL-33 (residues 112 to 269) (cynomolgus monkey, UniProt O95760 112-269 (human entry), biotin on the AviTag portion (BirA) in the SPR of Example 7; used without biotinylation in Example 10)
T1 construct: GenBank EHH57404 printed; also called cynomolgus monkey IL-33 protein; mature cynomolgus monkey IL-33
T1 chain: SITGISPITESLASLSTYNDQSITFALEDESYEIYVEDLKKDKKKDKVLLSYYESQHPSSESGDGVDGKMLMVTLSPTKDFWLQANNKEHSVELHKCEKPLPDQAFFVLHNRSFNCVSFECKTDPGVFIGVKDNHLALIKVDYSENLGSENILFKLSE
test name: SPR, IL-33 on chip, Fab supernatant as analyte
readout kind: koff (s⁻¹)
// note: answer is a bare numeric in s⁻¹

A25-2C06 (Fab) (Fab, V domains shown, Fab secreted by E. coli, tested as culture supernatant; also called V12) VH: EVQLLESGGGLVQPGGSLRLSCAASGFTFSNYYMHWVRQAPGKGLEWVSSISARSSYIYYADSVKGRFTISRDNSKNTLYLQMNSLRAEDTAVYYCARLATRNNAFDIWGQGTLVTVSS VL: QSVLTQPPSASGTPGQRVTISCSGSSSNIGRNAVNWYQQLPGTAPKLLIYASNMRVIGVPDRFSGSKSGTSASLAISGLRSEDEADYYCGAWDDSQKRYVFGGGTKLTVL    1.59e-05
A00-0070 (Fab) (Fab, V domains shown, parental clone as Fab; also called V29; parental clone (Fab)) VH: EVQLLESGGGLVQPGGSLRLSCAASGFTFSDYYMNWVRQAPGKGLEWVSSISSSSSYIYYADSVKGRFTISRDNSKNTLYLQMNSLRAEDTAVYYCARDIGGMDVWGQGTLVTVSS VL: QSVLTQPPSASGTPGQRVTISCTGSSSNIGAVYNVHWYQQLPGTAPKLLIYRNNQRPSGVPDRFSGSKSGTSASLAISGLRSEDEADYYCQSYDSSRWVFGGGTKLTVL    0.00522
A27-1A06 (Fab) (Fab, V domains shown, Fab secreted by E. coli, tested as culture supernatant; also called V21) VH: EVQLLESGGGLVQPGGSLRLSCAASGFTFSNYYMHWVRQAPGKGLEWVSSISARSSYRYYADSVKGRFTISRDNSKNTLYLQMNSLRAEDTAVYYCARLATRHLAFDIWGQGTLVTVSS VL: QSVLTQPPSASGTPGQRVTISCSGSSSNIGNNAVNWYQQLPGTAPKLLIYASNMRRPGVPDRFSGSKSGTSASLAISGLRSEDEADYYCAAWDDSQKVFVFGGGTKLTVL    1e-05
A13-1F05 (Fab) (Fab, V domains shown, Fab secreted by E. coli, tested as culture supernatant; also called V5) VH: EVQLLESGGGLVQPGGSLRLSCAASGFTFSDYYMNWVRQAPGKGLEWVSSISRYSGYIYYADSVKGRFTISRDNSKNTLYLQMNSLRAEDTAVYYCARDIGGMDVWGQGTLVTVSS VL: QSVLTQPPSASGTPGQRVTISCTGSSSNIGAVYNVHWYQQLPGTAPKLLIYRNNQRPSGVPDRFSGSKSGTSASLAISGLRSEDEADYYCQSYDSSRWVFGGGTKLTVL    5.79e-05

Now let's try a different one.
Q) What measured koff goes with A28-1G07 (Fab) (Fab, V domains shown, Fab secreted by E. coli, tested as culture supernatant; also called V24) VH: EVQLLESGGGLVQPGGSLRLSCAASGFTFSNYYMHWVRQAPGKGLEWVSSISARSSYRYYADSVKGRFTISRDNSKNTLYLQMNSLRAEDTAVYYCARLATRHSAFDIWGQGTLVTVSS VL: QSVLTQPPSASGTPGQRVTISCSGSSSNIGHNAVSWYQQLPGTAPKLLIYASNMRRLGVPDRFSGSKSGTSASLAISGLRSEDEADYYCGAWDDSQKVVVFGGGTKLTVL ?
A) 1.05e-05
